# Test system: K86415-001-R-J1-PDC complex spheroids, viability
# experiment_summary: Anticancer human tumor K86415-001-R-J1-PDC patient-derived lung adenocarcinoma cell line growth inhibition [RAS]
# details: second compound 0.00949 µM; first compound 0.1 µM; hits give low values
Mark condition met only for viability, T/C values smaller than 5%; exact matches and larger values are condition not met.

Please check: viability, T/C for O=C(c1ccc(F)c(F)c1Nc1ccc(I)cc1F)N1CC(O)([C@@H]2CCCCN2)C1 + CCn1c(-c2cc(N3CCN(C)CC3)cnc2C(C)OC)c2c3cc(ccc31)-c1csc(n1)CC(NC(=O)C1CC1C)C(=O)N1CCCC(N1)C(=O)OCC(C)(C)C2 , strictly under 5% or not? condition met

Quick one: CC1(O)CCCC1n1c(=O)c(C(F)F)cc2cnc(NC3CCN(S(C)(=O)=O)CC3)nc21 (stereo not drawn) + CCn1c(-c2cc(N3CCN(C)CC3)cnc2C(C)OC)c2c3cc(ccc31)-c1csc(n1)CC(NC(=O)C1CC1C)C(=O)N1CCCC(N1)C(=O)OCC(C)(C)C2 condition not met

Quick one: Cc1nc(N2CCC3(CC2)COC(C)C3N)c(CO)nc1Sc1ccnc(N)c1Cl (stereo not drawn) + CCn1c(-c2cc(N3CCN(C)CC3)cnc2C(C)OC)c2c3cc(ccc31)-c1csc(n1)CC(NC(=O)C1CC1C)C(=O)N1CCCC(N1)C(=O)OCC(C)(C)C2 condition not met

Next:
Please check: viability, T/C for C[C@@H](NC(=O)c1ncnc(N)c1Cl)c1ncc(C(=O)Nc2cc(C(F)(F)F)c(Cl)cn2)s1 + CCn1c(-c2cccnc2C(C)OC)c2c3cc(ccc31)N1CCOC(CC(NC(=O)C(C(C)C)N(C)C(=O)C3(F)CCN(C(=O)C#CC(C)(C)N(C)C)CC3)C(=O)N3CCCC(N3)C(=O)OCC(C)(C)C2)C1 , strictly under 5% or not? condition not met

Quick one: CC(C)NCC(C(=O)N1CCN(c2ncnc3c2C(C)CC3O)CC1)c1ccc(Cl)cc1 (stereo not drawn) + CCn1c(-c2cc(N3CCN(C)CC3)cnc2C(C)OC)c2c3cc(ccc31)-c1csc(n1)CC(NC(=O)C1CC1C)C(=O)N1CCCC(N1)C(=O)OCC(C)(C)C2 condition not met

Quick one: Nc1ccn(C2OC(CO)C(O)C2(F)F)c(=O)n1 (stereo not drawn) + CCn1c(-c2cc(N3CCN(C)CC3)cnc2C(C)OC)c2c3cc(ccc31)-c1csc(n1)CC(NC(=O)C1CC1C)C(=O)N1CCCC(N1)C(=O)OCC(C)(C)C2 condition not met

====

# System: K86415-001-R-J1-PDC complex spheroids, viability
# experiment_summary: Anticancer human tumor K86415-001-R-J1-PDC cell line growth inhibition [RAS];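 also: spheroids exposed to agents for seven days before readout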
# details: second compound 0.003 µM; first compound 0.0316 µM; hits give low values
outcome_measure: viability, T/C (%)
The answer is to be given in %; state only the numeric part.

Quick one: viability, T/C of Nc1ccn(C2OC(CO)C(O)C2(F)F)c(=O)n1 (configuration not stated) + CCn1c(-c2cccnc2C(C)OC)c2c3cc(ccc31)N1CCOC(CC(NC(=O)C(C(C)C)N(C)C(=O)C3(F)CCN(C(=O)C#CC(C)(C)N(C)C)CC3)C(=O)N3CCCC(N3)C(=O)OCC(C)(C)C2)C1 ? 10.8

Next:
Quick one: viability, T/C of C[C@@H](NC(=O)c1ncnc(N)c1Cl)c1ncc(C(=O)Nc2cc(C(F)(F)F)c(Cl)cn2)s1 + CCn1c(-c2cc(N3CCN(C)CC3)cnc2C(C)OC)c2c3cc(ccc31)-c1csc(n1)CC(NC(=O)C1CC1C)C(=O)N1CCCC(N1)C(=O)OCC(C)(C)C2 ? 34.8

Quick one: Cc1nc(N2CCC3(CC2)COC(C)C3N)c(CO)nc1Sc1ccnc(N)c1Cl (configuration not stated) + CCn1c(-c2cccnc2C(C)OC)c2c3cc(ccc31)N1CCOC(CC(NC(=O)C(C(C)C)N(C)C(=O)C3(F)CCN(C(=O)C#CC(C)(C)N(C)C)CC3)C(=O)N3CCCC(N3)C(=O)OCC(C)(C)C2)C1 8.24

Quick one: CC(=O)OC12COC1CC(O)C1(C)C(=O)C(O)C3=C(C)C(OC(=O)C(O)C(NC(=O)OC(C)(C)C)c4ccccc4)CC(O)(C(OC(=O)c4ccccc4)C21)C3(C)C (configuration not stated) + CCn1c(-c2cc(N3CCN(C)CC3)cnc2C(C)OC)c2c3cc(ccc31)-c1csc(n1)CC(NC(=O)C1CC1C)C(=O)N1CCCC(N1)C(=O)OCC(C)(C)C2 19.2

Quick one: CC1(O)CCCC1n1c(=O)c(C(F)F)cc2cnc(NC3CCN(S(C)(=O)=O)CC3)nc21 (configuration not stated) + CCn1c(-c2cc(N3CCN(C)CC3)cnc2C(C)OC)c2c3cc(ccc31)-c1csc(n1)CC(NC(=O)C1CC1C)C(=O)N1CCCC(N1)C(=O)OCC(C)(C)C2 18.4

Quick one: CC(=O)OC12COC1CC(O)C1(C)C(=O)C(O)C3=C(C)C(OC(=O)C(O)C(NC(=O)OC(C)(C)C)c4ccccc4)CC(O)(C(OC(=O)c4ccccc4)C21)C3(C)C (configuration not stated) + CCn1c(-c2cccnc2C(C)OC)c2c3cc(ccc31)N1CCOC(CC(NC(=O)C(C(C)C)N(C)C(=O)C3(F)CCN(C(=O)C#CC(C)(C)N(C)C)CC3)C(=O)N3CCCC(N3)C(=O)OCC(C)(C)C2)C1 15.4

Quick one: O=C(c1ccc(F)c(F)c1Nc1ccc(I)cc1F)N1CC(O)([C@@H]2CCCCN2)C1 + CCn1c(-c2cc(N3CCN(C)CC3)cnc2C(C)OC)c2c3cc(ccc31)-c1csc(n1)CC(NC(=O)C1CC1C)C(=O)N1CCCC(N1)C(=O)OCC(C)(C)C2 8.83

====

# System: K86415-001-R-J1-PDC complex spheroids, viability
# experiment_summary: Anticancer human tumor K86415-001-R-J1-PDC cell line growth inhibition [RAS]; active = viability on the fitted dose curve at most 10% of control; inactive = the rest;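 also: spheroids exposed to agents for seven days before readout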
# details: second compound 0.0949 µM; first compound 0.00949 µM
A correct response names exactly one class from active, inactive

How did this test come out for CCc1c2c(nc3ccc(O)cc13)-c1cc3c(c(=O)n1C2)COC(=O)[C@]3(O)CC + CCn1c(-c2cc(N3CCN(C)CC3)cnc2C(C)OC)c2c3cc(ccc31)-c1csc(n1)CC(NC(=O)C1CC1C)C(=O)N1CCCC(N1)C(=O)OCC(C)(C)C2 ? active

Next:
How did this test come out for CC1(C)CCC(Nc2ncc(C(F)(F)F)c(-c3c[nH]c4c(P(C)(C)=O)c(C#N)ccc34)n2)CN1 (centres undefined) + CCn1c(-c2cccnc2C(C)OC)c2c3cc(ccc31)N1CCOC(CC(NC(=O)C(C(C)C)N(C)C(=O)C3(F)CCN(C(=O)C#CC(C)(C)N(C)C)CC3)C(=O)N3CCCC(N3)C(=O)OCC(C)(C)C2)C1 ? inactive

Quick one: CCc1c2c(nc3ccc(O)cc13)-c1cc3c(c(=O)n1C2)COC(=O)[C@]3(O)CC + CCn1c(-c2cccnc2C(C)OC)c2c3cc(ccc31)N1CCOC(CC(NC(=O)C(C(C)C)N(C)C(=O)C3(F)CCN(C(=O)C#CC(C)(C)N(C)C)CC3)C(=O)N3CCCC(N3)C(=O)OCC(C)(C)C2)C1 active

Quick one: CC1(C)CCC(Nc2ncc(C(F)(F)F)c(-c3c[nH]c4c(P(C)(C)=O)c(C#N)ccc34)n2)CN1 (centres undefined) + CCn1c(-c2cc(N3CCN(C)CC3)cnc2C(C)OC)c2c3cc(ccc31)-c1csc(n1)CC(NC(=O)C1CC1C)C(=O)N1CCCC(N1)C(=O)OCC(C)(C)C2 active

====

# Tested on: K86415-001-R-J1-PDC complex spheroids, viability
# experiment_summary: Anticancer human tumor K86415-001-R-J1-PDC cell line growth inhibition [RAS]; active means viability on the fitted dose curve at most 10% of control; inactive means the rest;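 also: spheroids exposed to agents for seven days before readout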
# details: second compound 0.00949 µM; first compound 1 µM
A correct response names exactly one class from active, inactive

Before answering, review these 5 worked examples.
How did this test come out for O=C(c1ccc(F)c(F)c1Nc1ccc(I)cc1F)N1CC(O)([C@@H]2CCCCN2)C1 + CCn1c(-c2cccnc2C(C)OC)c2c3cc(ccc31)N1CCOC(CC(NC(=O)C(C(C)C)N(C)C(=O)C3(F)CCN(C(=O)C#CC(C)(C)N(C)C)CC3)C(=O)N3CCCC(N3)C(=O)OCC(C)(C)C2)C1 ? active

Quick one: C=CC(=O)Nc1cc(Nc2nccc(-c3cn(C)c4ccccc34)n2)c(OC)cc1N(C)CCN(C)C + CCn1c(-c2cc(N3CCN(C)CC3)cnc2C(C)OC)c2c3cc(ccc31)-c1csc(n1)CC(NC(=O)C1CC1C)C(=O)N1CCCC(N1)C(=O)OCC(C)(C)C2 active

Quick one: NC1c2ccccc2OC12CCN(c1cnc3c(N4CCCc5ncccc54)n[nH]c3n1)CC2 (stereo unspecified) + CCn1c(-c2cc(N3CCN(C)CC3)cnc2C(C)OC)c2c3cc(ccc31)-c1csc(n1)CC(NC(=O)C1CC1C)C(=O)N1CCCC(N1)C(=O)OCC(C)(C)C2 active

Quick one: O=C(c1ccc(F)c(F)c1Nc1ccc(I)cc1F)N1CC(O)([C@@H]2CCCCN2)C1 + CCn1c(-c2cc(N3CCN(C)CC3)cnc2C(C)OC)c2c3cc(ccc31)-c1csc(n1)CC(NC(=O)C1CC1C)C(=O)N1CCCC(N1)C(=O)OCC(C)(C)C2 active

Quick one: CCC(CC)c1cc(NC2CCC(N)C2)n2nccc2n1 (stereo unspecified) + CCn1c(-c2cc(N3CCN(C)CC3)cnc2C(C)OC)c2c3cc(ccc31)-c1csc(n1)CC(NC(=O)C1CC1C)C(=O)N1CCCC(N1)C(=O)OCC(C)(C)C2 active

Next:
How did this test come out for CC(=O)OC12COC1CC(O)C1(C)C(=O)C(O)C3=C(C)C(OC(=O)C(O)C(NC(=O)OC(C)(C)C)c4ccccc4)CC(O)(C(OC(=O)c4ccccc4)C21)C3(C)C (stereo unspecified) + CCn1c(-c2cccnc2C(C)OC)c2c3cc(ccc31)N1CCOC(CC(NC(=O)C(C(C)C)N(C)C(=O)C3(F)CCN(C(=O)C#CC(C)(C)N(C)C)CC3)C(=O)N3CCCC(N3)C(=O)OCC(C)(C)C2)C1 ? inactive

Quick one: Cc1nc(N2CCC3(CC2)COC(C)C3N)c(CO)nc1Sc1ccnc(N)c1Cl (stereo unspecified) + CCn1c(-c2cccnc2C(C)OC)c2c3cc(ccc31)N1CCOC(CC(NC(=O)C(C(C)C)N(C)C(=O)C3(F)CCN(C(=O)C#CC(C)(C)N(C)C)CC3)C(=O)N3CCCC(N3)C(=O)OCC(C)(C)C2)C1 active

Quick one: Nc1ccn(C2OC(CO)C(O)C2(F)F)c(=O)n1 (stereo unspecified) + CCn1c(-c2cccnc2C(C)OC)c2c3cc(ccc31)N1CCOC(CC(NC(=O)C(C(C)C)N(C)C(=O)C3(F)CCN(C(=O)C#CC(C)(C)N(C)C)CC3)C(=O)N3CCCC(N3)C(=O)OCC(C)(C)C2)C1 inactive

Quick one: C=CC(=O)N1CCN(c2nc(OCC3CCCN3C)nc3c(F)c(-c4nc(N)cc(C)c4C(F)(F)F)c(Cl)cc23)C(C)C1 (stereo unspecified) + CCn1c(-c2cccnc2C(C)OC)c2c3cc(ccc31)N1CCOC(CC(NC(=O)C(C(C)C)N(C)C(=O)C3(F)CCN(C(=O)C#CC(C)(C)N(C)C)CC3)C(=O)N3CCCC(N3)C(=O)OCC(C)(C)C2)C1 inactive

Quick one: NC1c2ccccc2OC12CCN(c1cnc3c(N4CCCc5ncccc54)n[nH]c3n1)CC2 (stereo unspecified) + CCn1c(-c2cccnc2C(C)OC)c2c3cc(ccc31)N1CCOC(CC(NC(=O)C(C(C)C)N(C)C(=O)C3(F)CCN(C(=O)C#CC(C)(C)N(C)C)CC3)C(=O)N3CCCC(N3)C(=O)OCC(C)(C)C2)C1 active

Quick one: CC1(O)CCCC1n1c(=O)c(C(F)F)cc2cnc(NC3CCN(S(C)(=O)=O)CC3)nc21 (stereo unspecified) + CCn1c(-c2cc(N3CCN(C)CC3)cnc2C(C)OC)c2c3cc(ccc31)-c1csc(n1)CC(NC(=O)C1CC1C)C(=O)N1CCCC(N1)C(=O)OCC(C)(C)C2 inactive
